# assay_procedure: NCI Yeast Anticancer Drug Screen. Data for the bub3 strain (AID 167)
# measurement_context: S. cerevisiae bub3 mutant strain, at 50.0 µM, stronger effect = higher value
The panel holds about 79,000 compounds, 15% with a hit somewhere; the sample as a whole holds those more often.
Reported values of growth inhibition for individual entries

| compound | growth inhibition (%) |
| --- | --- |
| O=C(c1ccccc1)C1C(C(=O)c2ccccc2)C(c2ccccc2)N(c2ccccc2)C1c1ccccc1 (configuration not stated) | -12.2 |
| CC(=O)NC(=O)NC1=NCCC(=O)N1CCc1c[nH]c2ccccc12 | -19.1 |
| CCCCS(=O)(=O)N1CCCC1 | -5 |
| O=C(O)CSc1n[nH]c(-c2ccco2)n1 | 11.1 |
| Nc1c2c(cc3c1C(=O)c1ccccc1C3=O)OCO2 | 22 |
| CN(CCO)CC(O)Cn1cnc2ncnc(N)c21 (configuration not stated) | 7 |
| NC(=O)NCCCC1NC(=S)N(c2ccccc2)C1=O (configuration not stated) | 23.9 |

###

# assay_procedure: NCI Yeast Anticancer Drug Screen. Data for the mec2-1 strain (AID 157)
# measurement_context: S. cerevisiae mec2-1 strain, at 50.0 µM, stronger effect = higher value
Compounds without any hit were thinned out: in the full panel of roughly 79,000, 15% have a hit. The source made the active and inactive calls. No stated cut-off is given here; in the data, active means growth inhibition above about 70%; inactive means the rest.

| compound | growth inhibition |
| --- | --- |
| COc1ccc(C(=O)C(CO)Oc2ccccc2OC)cc1OC (configuration not stated) | 7.5% (inactive) |
| O=C(O)C(NCCNC(C(=O)O)c1ccccc1)c1ccccc1 (configuration not stated) | 6.7% (inactive) |
| O=C(CC1NCCS1)OCc1ccc(Br)cc1 (configuration not stated) | 14.1% (inactive) |
| O=C(CCc1ccccc1Cl)CC(=O)CC(O)(c1ccccc1)c1ccccc1 | 57.5% (inactive) |
| C=C1CC[C@H]2C(C)=CC[C@H]3C(=C)C(=O)O[C@@H]3[C@@H]12 | -17% (inactive) |
| CC(C)NC(=O)OCCN=C1c2ccccc2C(Br)C(Br)c2ccccc21 (configuration not stated) | -5.1% (inactive) |
| COc1ccc2oc(C(=O)O)cc2c1 | -3.65% (inactive) |
| O=C(Nc1ccc(Cl)cc1)Oc1ccc(Br)cc1Br | -3.95% (inactive) |
| COC/C(=N/Nc1ccc([N+](=O)[O-])cc1[N+](=O)[O-])C(C)(C)C | 16.4% (inactive) |
| O=NN(Cc1ccc(Cl)cc1)NC1=NCCN1 | 14.3% (inactive) |
| COc1cc(C=NCc2ccccc2)cc(OC)c1O | 19.2% (inactive) |
| CC(=O)Nc1ccn(C2OC(COC(C)=O)C(OC(C)=O)C(OC(C)=O)C2OC(C)=O)c(=O)n1 (configuration not stated) | -14.3% (inactive) |
| O=C(/C=C/c1ccc(OCc2ccccc2)c(OCc2ccccc2)c1)OCc1ccccc1 | -9.65% (inactive) |
| CC1CCCCC12COC(O)CO2 (configuration not stated) | -23.4% (inactive) |
| O=C(/C=C/c1ccc(O)c(O)c1)OC1C[C@@](O)(C(=O)O)C[C@@H](O)[C@H]1OC(=O)/C=C/c1ccc(O)c(O)c1 (some centres not stated) | -14.1% (inactive) |
| Cc1ccc(OS(=O)(=O)c2ccccc2)cc1 | 20.4% (inactive) |
| Cc1cc(=S)cc(C)[nH]1 | 5.5% (inactive) |
| COC(=O)C(C)(NC(=O)C(CC(=O)OC(C)(C)C)NC(=O)OC(C)(C)C)c1ccccc1 (configuration not stated) | 16% (inactive) |
| CN(C)C=Nc1ccn(C2CC(F)C(CO)O2)c(=O)n1 (configuration not stated) | 13.2% (inactive) |
| Clc1cccc(-c2ncc(-c3ccccc3)o2)c1 | -3.8% (inactive) |
| Clc1ccc(Nc2nc3ccccc3nc2-c2cccs2)cc1Cl | 4.55% (inactive) |
| CCC(=O)n1cc2ccc([N+](=O)[O-])cc2n1 | 1.35% (inactive) |
| CNC(=O)Nc1ccc(Cl)cc1C(=O)O | 2.45% (inactive) |
| C/C(=N/O)c1cccc([N+](=O)[O-])c1 | 15.5% (inactive) |
| O=c1c2[nH]cnc2ncn1Cc1ccccc1 | 1.35% (inactive) |
| COc1ccc(Cc2ccc(CO)cc2)cc1 | -18.9% (inactive) |
| Cc1cccc(CC(O)c2ccc(C=O)cc2)n1 (configuration not stated) | 14.7% (inactive) |
| COC(=O)C(CC(=O)Nc1ccc(Cl)c(Cl)c1)C(=O)C(=O)Nc1ccc(Cl)c(Cl)c1 (configuration not stated) | -15.6% (inactive) |
| CNC(=O)c1c(-c2ccc(F)cc2)noc1C | -10.5% (inactive) |
| Nc1nc(N)c2cc(CNc3ccc(C(=O)NC(C(=O)O)C(=O)O)cc3)ccc2n1 | 8.1% (inactive) |
| CCC1(CC)OC(=O)C(=O)N1N(C)C | -0.8% (inactive) |
| Cc1ccc(S(=O)(=O)NC(=O)NCCCS(C)=O)cc1 (configuration not stated) | -6.5% (inactive) |
| CCCNc1ccc2c(c1)C(=O)c1ccccc1-2 | -1.1% (inactive) |
| COC(=O)c1ccc(SCCC(C)=O)cc1 | 5.3% (inactive) |
| OCc1c(CO)c(C(F)(F)F)n2c1CCC2 | -4.1% (inactive) |
| CC(=O)NNC(=S)N/C=C(\C#N)C(=O)c1ccc2ccccc2c1 | -22.2% (inactive) |
| C1CCCC2(CCC1)OCCO2 | 10.4% (inactive) |

Values from PubChem BioAssay (NCI)
